Test system: NCI/ADR-RES ovarian
Assay: NCI tumour cell line growth inhibition, 48 h
Documented TGI across a set of compounds

Recorded results for 8 compounds are shown here.
Enter TGI (test system NCI/ADR-RES ovarian) for Cn1c(=O)oc2cc(C(O)CN3CCN(Cc4ccc5c(c4)OCO5)CC3)ccc21 (centres undefined)
> 100 µM

Under NCI/ADR-RES ovarian: report TGI of COc1cc2c(SCCN(C)C)nc3ccccc3c2c2ccccc12 .
16.5 µM

Lab note: NCI/ADR-RES ovarian assay, enter TGI for COc1ccc(NCc2cccc3c(=O)c4ccc(Cl)cc4oc23)cc1 here
> 100 µM

Recall the reported TGI of CC(=O)OC[C@@]1(C)[C@@H]2[C@@H]3[C@@]4(CO[C@]3(C)C(=O)[C@@]3(OC(C)=O)C[C@H](C)[C@H](OC(C)=O)[C@@H]3[C@H]4OC(C)=O)[C@H](OC(=O)c3ccccc3)C[C@@H]21 on NCI/ADR-RES ovarian and write it down.
> 100 µM

// fetch TGI for O=c1c2c3c(sc2nc2n1sc1nc4sc5c(c4c(=O)n12)CCCC5)CCCC3 ; system: NCI/ADR-RES ovarian
> 71.4 µM

Specify TGI for OCC1NC(CO)C(O)C1O (centres undefined) , system NCI/ADR-RES ovarian.
> 100 µM

Specify the recorded TGI for Cc1cc2c(C(C)C)c(O)c(O)c(/C=N/O)c2c(O)c1-c1c(C)cc2c(C(C)C)c(O)c(O)c(/C=N/O)c2c1O , system: NCI/ADR-RES ovarian.
15.1 µM

Under NCI/ADR-RES ovarian: report TGI of CCOC(=O)C(Cc1ccccc1)n1c(O)c(/C=N/c2ncc(Cc3ccc(Cl)cc3Cl)s2)sc1=S (centres undefined) .
15.1 µM

// next item, TGI requested
Tell me TGI of Cc1[nH]c(N)nc(=S)c1CCCNc1ccccc1 when tested on NCI/ADR-RES ovarian.
> 100 µM
